target: HLA-B*51:01; test: IEDB peptide-MHC binding, purified MHC/direct/fluorescence; filed as Kd, often an IC50 or EC50 that approximates it; bounds were set here for any values at or beyond the usual limits of such assays; conditions: source organism: Brucella abortus
pKd: −log10 of the molar value.
observable: pKd

In: Given the sequence RPNPDFNTF , what is its reported pKd?
Out: ≤ 4.70

* * *

molecular target: HLA-A*24:02; test: IEDB peptide-MHC binding, purified MHC/competitive/radioactivity; filed as Kd, often an IC50 or EC50 that approximates it; bounds were set here for any values at or beyond the usual limits of such assays; conditions: source organism: Mammarenavirus whitewaterense
observable: pKd
API: returns pKd as number; meaning -log10 of concentration in mol/L.

In: Given PYIASRSQI , state its recorded pKd.
Out: 5.55
